# TARGET_OR_SYSTEM: DNA nucleotidylexotransferase (Bos taurus)
# Sequence (P06526 whole entry): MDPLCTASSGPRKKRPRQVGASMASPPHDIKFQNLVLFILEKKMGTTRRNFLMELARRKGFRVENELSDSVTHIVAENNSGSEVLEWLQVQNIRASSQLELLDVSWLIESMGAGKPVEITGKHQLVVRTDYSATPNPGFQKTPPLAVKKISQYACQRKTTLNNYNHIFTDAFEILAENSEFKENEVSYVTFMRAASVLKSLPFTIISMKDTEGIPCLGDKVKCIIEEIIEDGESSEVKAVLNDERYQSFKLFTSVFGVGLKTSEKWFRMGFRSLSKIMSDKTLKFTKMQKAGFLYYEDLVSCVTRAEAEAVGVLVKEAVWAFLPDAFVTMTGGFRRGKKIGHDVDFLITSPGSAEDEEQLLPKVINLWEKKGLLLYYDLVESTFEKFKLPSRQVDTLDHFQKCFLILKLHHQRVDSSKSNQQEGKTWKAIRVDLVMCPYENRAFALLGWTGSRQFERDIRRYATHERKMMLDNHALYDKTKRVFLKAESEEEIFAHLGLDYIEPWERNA
pIC50: −log10 of the molar value.

{"COMPOUND_STRING": "CC[C@H](C)[C@H](NC(=O)[C@H](Cc1ccc(O)cc1)NC(=O)OC(C)(C)C)C(=O)Nc1cccc2ccccc12", "pIC50": "< 3.70"}

---

# System: HCT-116
# EXPERIMENT_SUMMARY: Cytotoxicity against p53 +/+ human HCT116 cells assessed as growth inhibition at 200 uM incubated for 24 hrs by WST-1 assay
# Format: functional, cell-based
Active and inactive are the calls of the source. No cut-off for these calls is given here.
Possible outcomes: 1 (active), -1 (inactive)

{"COMPOUND_STRING": "CC(C)(C)OC(=O)N[C@@H](Cc1ccc(O)cc1)C(=O)N[C@@H](CCC(=O)O)C(=O)Nc1cccc2ccccc12", "CLASS": -1}
{"COMPOUND_STRING": "CC(C)C[C@H](NC(=O)[C@H](Cc1ccc(O)cc1)NC(=O)OC(C)(C)C)C(=O)Nc1cccc2ccccc12", "CLASS": 1}
{"COMPOUND_STRING": "CC[C@H](C)[C@H](NC(=O)[C@H](Cc1ccc(O)cc1)NC(=O)OC(C)(C)C)C(=O)Nc1cccc2ccccc12", "CLASS": 1}
{"COMPOUND_STRING": "CC(C)(C)OC(=O)NCCC(=O)Nc1cccc2ccccc12", "CLASS": -1}
{"COMPOUND_STRING": "CC(C)(C)OC(=O)N[C@@H](Cc1ccc(O)cc1)C(=O)N[C@@H](CC(=O)O)C(=O)Nc1cccc2ccccc12", "CLASS": -1}
{"COMPOUND_STRING": "CC(C)(C)OC(=O)N[C@@H](Cc1ccc(O)cc1)C(=O)N[C@@H](Cc1ccccc1)C(=O)Nc1cccc2ccccc12", "CLASS": 1}
{"COMPOUND_STRING": "CC(C)(C)OC(=O)NCCCCCCC(=O)Nc1cccc2ccccc12", "CLASS": -1}
{"COMPOUND_STRING": "CC(C)[C@H](NC(=O)[C@H](Cc1ccc(O)cc1)NC(=O)OC(C)(C)C)C(=O)Nc1cccc2ccccc12", "CLASS": 1}
{"COMPOUND_STRING": "CC(C)(C)OC(=O)NCCCCC(=O)Nc1cccc2ccccc12", "CLASS": -1}
